test system: MCF-7 breast carcinoma cells; assay: MTT cytotoxicity assay, MCF-7; type: cell-based, human; conditions: MTT test; mean ± SD of three experiments
Property Name: IC50

[[record]]
molecule = "COc1cccc2c1C(=O)c1c(O)c3c(c(O)c1C2=O)C[C@@](O)(C(=O)CO)C[C@@H]3O[C@H]1C[C@H](N)[C@H](O)[C@H](C)O1 [Doxorubicin, reference compound]"
measured_result = "3.12 µM"


---

system: A549 lung cancer cells; test: MTT cytotoxicity assay, A549; type: cell-based, human; settings: MTT test; mean ± SD of three experiments
Property Name: IC50 (µM)

[[record]]
molecule = "Cc1nc(Nc2ncc(C(=O)Nc3c(C)cccc3Cl)s2)cc(N2CCN(CCO)CC2)n1 [Dasatinib, reference compound]"
system_under_test = "A549 lung cancer cells"
property_name = "IC50"
measured_result = 11.8

